tested on: HMLE_shECad viability, CellTiter-Glo luminescence, 72 h; assay: HMLE_shECad cancer stem cell-like viability inhibition, dose response, CellTiter-Glo luminescence, dry powder (AID 588704)
Measured AC50 of individual entries

Compound	AC50
O=C(COc1ccc(Cl)cc1Cl)N/N=C/c1ccc[nH]1	3390 nM
Cc1cc(Cl)ccc1OCC(=O)N/N=C/c1ccc[nH]1	4580 nM
CC(C)(C)c1ccc2c(c1)OC(C(=O)N/N=C/c1ccc[nH]1)CO2 (stereo unspecified)	3480 nM
O=C(COc1c(Cl)cc(Cl)cc1Cl)N/N=C/c1ccc[nH]1	470 nM
O=C(COc1cc(Cl)ccc1Cl)N/N=C/c1ccc[nH]1	930 nM
O=C(N/N=C/c1ccc[nH]1)c1cc2ccccc2o1	2460 nM
